biological target: Solute carrier organic anion transporter family member 1B1 (Homo sapiens, UniProt Q9Y6L6); details: chinese hamster, cho, 10 µM
Sequence (Q9Y6L6 whole entry): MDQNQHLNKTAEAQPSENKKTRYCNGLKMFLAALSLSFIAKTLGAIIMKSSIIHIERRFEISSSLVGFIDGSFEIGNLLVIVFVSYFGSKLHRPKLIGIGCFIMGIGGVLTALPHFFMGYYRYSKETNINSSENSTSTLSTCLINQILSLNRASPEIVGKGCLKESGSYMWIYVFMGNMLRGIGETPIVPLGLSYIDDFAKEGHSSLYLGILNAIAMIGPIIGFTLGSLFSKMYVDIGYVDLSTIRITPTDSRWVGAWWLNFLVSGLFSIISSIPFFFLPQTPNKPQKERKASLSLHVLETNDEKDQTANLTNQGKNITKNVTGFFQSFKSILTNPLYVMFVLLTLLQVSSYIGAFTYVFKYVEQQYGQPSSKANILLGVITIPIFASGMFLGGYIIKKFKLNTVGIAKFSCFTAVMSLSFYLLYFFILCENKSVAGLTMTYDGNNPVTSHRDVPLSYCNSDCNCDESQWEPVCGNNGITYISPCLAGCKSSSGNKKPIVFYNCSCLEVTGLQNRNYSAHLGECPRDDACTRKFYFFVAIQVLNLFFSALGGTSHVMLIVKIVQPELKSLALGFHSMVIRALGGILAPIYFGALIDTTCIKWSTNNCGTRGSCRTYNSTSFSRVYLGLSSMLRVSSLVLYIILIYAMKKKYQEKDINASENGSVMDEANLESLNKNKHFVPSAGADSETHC
Experimental Endpoint: residual activity

Here's what some known entries look like.
| Compound | Tested System | Experimental Endpoint | Result |
| --- | --- | --- | --- |
| O=C(O)c1cc([N+](=O)[O-])ccc1NCCCc1ccccc1 | Solute carrier organic anion transporter family member 1B1 (Homo sapiens, UniProt Q9Y6L6) | residual activity | 40.14% |
| C=C(C)[C@@H]1CC[C@]2(CO)CC[C@]3(C)[C@H](CC[C@@H]4[C@@]5(C)CC[C@H](O)C(C)(C)[C@@H]5CC[C@]43C)[C@@H]12 [BETULIN] | Solute carrier organic anion transporter family member 1B1 (Homo sapiens, UniProt Q9Y6L6) | residual activity | 106.3% |
| COP(=S)(OC)SCn1nnc2ccccc2c1=O [GUTHION] | Solute carrier organic anion transporter family member 1B1 (Homo sapiens, UniProt Q9Y6L6) | residual activity | 109.1% |
| CC(=O)O[C@@H]1C[C@H]2C(C)(C)[C@@H](O)CC[C@]2(C)[C@H]2CC[C@@]3(C)[C@H](c4ccoc4)OC(=O)[C@H]4O[C@]43[C@@]21C [beta-DIHYDROGEDUNOL] | Solute carrier organic anion transporter family member 1B1 (Homo sapiens, UniProt Q9Y6L6) | residual activity | 20.54% |
| N=C(N)NC(=O)c1nc(Cl)c(N2CCCCCC2)nc1N [N,N-HEXAMETHYLENEAMILORIDE] | Solute carrier organic anion transporter family member 1B1 (Homo sapiens, UniProt Q9Y6L6) | residual activity | 122.5% |

Would you be so kind as to report residual activity for each listed record?
1. C[C@H](CCC(=O)O)[C@H]1CC[C@H]2[C@@H]3CC[C@@H]4CC(=O)CC[C@]4(C)[C@H]3C=C[C@]12C
2. Cl.OC1CCCCC1N1CCC(c2ccccc2)CC1 (configuration not stated) [VESAMICOL HYDROCHLORIDE]

Completion:
40.37%
64.34%

The reported numbers originate from ChEMBL document CHEMBL3039007.
